# measurement.protocol: BET inhibitor-based combinations targeting novel dependencies in MECOM-rearranged (r) AML: HNT-34 cell line (AID 2202234); further: nearly all actives have a fitted effect of over 35% in size; further: potency means the concentration at half of the fitted maximal effect
# stated.conditions: HNT-34 AML viability, CellTiter-Glo luminescence, 48 h; series mostly up to 46 µM
Inconclusive results are not listed. Calls of active or inactive are those of the source. The call rests on the fitted dose curve; in most records, active means well fitted inhibition curve with a large enough effect; inconclusive means small, poorly fitted or top-dose-only effect; inactive means no such curve, though single readings can be large or run the other way.
endpoint.label: Potency

CO[C@@]12[C@H](COC(N)=O)C3=C(C(=O)C(C)=C(N)C3=O)N1C[C@@H]1N[C@@H]12    inactive
C[C@H]1CNC(=O)c2cnn3ccc(nc23)N[C@H](C)c2cc(F)ccc2O1    0.833 µM (active)
C[C@@H]1[C@H](O)[C@@H](C)/C=C/C=C/C=C/C=C/C=C/C=C/C=C/[C@H](O[C@@H]2O[C@H](C)[C@@H](O)[C@H](N)[C@@H]2O)C[C@@H]2O[C@](O)(C[C@@H](O)C[C@@H](O)[C@H](O)CC[C@@H](O)C[C@@H](O)CC(=O)O[C@H]1C)C[C@H](O)[C@H]2C(=O)O    inactive
CCCc1nc(C)c2c(=O)[nH]c(-c3cc(S(=O)(=O)N4CCN(CC)CC4)ccc3OCC)nn12    inactive
COc1ccc([C@@H](O)[C@@H](C)Oc2ccc([C@H]3O[C@H](c4ccc(O[C@H](C)[C@H](O)c5ccc(OC)c(OC)c5)c(OC)c4)[C@H](C)[C@H]3C)cc2OC)cc1OC    23.5 µM (active)

Attention now shifts to the item below.
// query Look up Potency: C=C1C(=CC=C2CCC[C@]3(C)[C@@H]([C@H](C)C=C[C@H](C)C(C)C)CC[C@@H]23)C[C@@H](O)C[C@@H]1O
// result 18.6 µM (active)

###

# measurement.protocol: BET inhibitor-based combinations targeting novel dependencies in MECOM-rearranged (r) AML: UCSD-AML1 cell line (AID 2202235); further: nearly all actives have a fitted effect of over 40% in size
# stated.conditions: UCSD-AML1 AML cells viability, CellTiter-Glo, 48 h; series mostly up to 46 µM
Inconclusive results are not listed. Activity calls are given as the source filed them. The call rests on the fitted dose curve; in most records, active means well fitted inhibition curve with a large enough effect; inconclusive means small, poorly fitted or top-dose-only effect; inactive means no such curve, though single readings can be large or run the other way. Starred links: 1 amine or outer side, 2 acyl side, 3 side chain; linkers in the order of their positions; H or OH if unused. Positions of bridges follow the written chain, without caps; N, C: chain ends. Non-standard residues stand in square brackets, D forms with d. Residues, ends and D or L forms follow the SMILES beside them. Chains are numbered I, II in the order given. Actinocin(9to1) = Cc1c2oc3c(C)ccc(C(=O)[*:1])c3nc-2c(C(=O)[*:2])c(N)c1=O; NMeV = CN[CH](C(=O)O)C(C)C; Sar = CNCC(=O)O
The reply should name one outcome from yes = active, no = inactive

O=C(NOCCO)c1ccc2cncn2c1Nc1ccc(I)cc1F    yes
CC(=O)NCCCS(=O)(=O)O    no
CC1(C)O[C@@H]2C[C@H]3[C@@H]4C[C@H](F)C5=CC(=O)C=C[C@]5(C)[C@@]4(F)[C@@H](O)C[C@]3(C)[C@]2(C(=O)CO)O1    no
CN1CCN(C2CCC(n3cc(-c4ccc(Oc5ccccc5)cc4)c4c(N)ncnc43)CC2)CC1 (stereo not given)    yes

// query Per the records of this test, what outcome belongs to CCOc1ccc(-n2c([C@@H](C)N(Cc3cccnc3)C(=O)Cc3ccc(F)c(C(F)(F)F)c3)nc3ncccc3c2=O)cc1 ?
// result no

// query Per the records of this test, what outcome belongs to c1ccc2[nH]c(-c3cscn3)nc2c1 ?
// result no

// query Per the records of this test, what outcome belongs to Cc1c2oc3c(C)ccc(C(=O)NC4C(=O)NC(C(C)C)C(=O)N5CCCC5C(=O)N(C)CC(=O)N(C)C(C(C)C)C(=O)OC4C)c3nc-2c(C(=O)NC2C(=O)NC(C(C)C)C(=O)N3CCCC3C(=O)N(C)CC(=O)N(C)C(C(C)C)C(=O)OC2C)c(N)c1=O (stereo not given) (I: TVP[Sar][NMeV] / II: TVP[Sar][NMeV]; ester I:1-I:C, II:1-II:C; linker I:N-II:N via Actinocin(9to1); configuration not given here) ?
// result yes

// query Per the records of this test, what outcome belongs to Cc1ccc([C@@H]2O[C@H](CO)[C@@H](O)[C@H](O)[C@H]2O)cc1Cc1ccc(-c2ccc(F)cc2)s1 ?
// result no

// query Per the records of this test, what outcome belongs to COc1cc2c3c(n(CCCN4CCOCC4)c(=O)c2cc1OC)-c1cc2c(cc1C3=O)OCO2 ?
// result yes

// query Per the records of this test, what outcome belongs to C=C1C(=CC=C2CCC[C@]3(C)[C@@H]([C@H](C)C=C[C@H](C)C(C)C)CC[C@@H]23)C[C@@H](O)C[C@@H]1O ?
// result no

// query Per the records of this test, what outcome belongs to OC1CCC(Oc2cccc3cnc(Nc4ccc5nc[nH]c5c4)nc23)CC1 (stereo not given) ?
// result yes
